Ref: ChEMBL document CHEMBL4138295

ASSAY_OVERVIEW: Drug recovery in cynomolgus monkey at 1 mg/kg, iv or po via gavage measured up to 24 hrs by LC-MS/MS analysis
Type: ADME, organism-based, Macaca fascicularis
COND: in vivo, read-out: Drug recovery

# SMILES_STRUCTURE, dose excreted at 24 h (%)
measured = [
    ("Cc1nn2c(-c3c(C)nn(C)c3-c3ccc(C(F)(F)F)cc3)nc(CO)c2c(=O)[nH]1", 26),
]

---

ASSAY_OVERVIEW: Oral bioavailability in cynomolgus monkey at 5 mg/kg administered via gavage by LC-MS/MS analysis
Assay type: ADME, organism-based, Macaca fascicularis
COND: in vivo

# SMILES_STRUCTURE, UOM, bioavailability
data = [
    ("Cc1nn2c(-c3c(C)nn(C)c3-c3ccc(C(F)(F)F)cc3)nc(CO)c2c(=O)[nH]1", "%", 61),
]

---

ASSAY_OVERVIEW: Drug recovery in Wistar-Han rat at 1 mg/kg, iv or 5 mg/kg, po via gavage measured up to 24 hrs by LC-MS/MS analysis
Assay type: ADME, organism-based
COND: in vivo, read-out: Drug recovery
ASSAY_READOUT: dose excreted at 24 h (%)

# SMILES_STRUCTURE, ASSAY_READOUT, VAL
measured = [
    ("Cc1nn2c(-c3c(C)nn(C)c3-c3ccc(C(F)(F)F)cc3)nc(CO)c2c(=O)[nH]1", "dose excreted at 24 h", 22),
]

---

ASSAY_OVERVIEW: Drug recovery in Beagle dog at 1 mg/kg, iv or po via gavage measured up to 24 hrs by LC-MS/MS analysis
Type: ADME, organism-based, Canis lupus familiaris
COND: in vivo, read-out: Drug recovery

# SMILES_STRUCTURE, UOM, dose excreted at 24 h
measured = [
    ("Cc1nn2c(-c3c(C)nn(C)c3-c3ccc(C(F)(F)F)cc3)nc(CO)c2c(=O)[nH]1", "%", 48),
]
